system: normal human adult articular cartilage explants; test: Type II collagen cleavage by collagenase (COL2-3/4C) in human articular cartilage explant culture; format: cell-based; settings: by day 16
READOUT_LABEL: effect of removal of hydroxylation at a single proline residue on activity of CB12-II (SP)

>>> assay_result("GERGPPGPQGARGFP*GTP*GLP*GVK [SP6]")
"no effect on activity"
>>> assay_result("GERGPP*GPQGARGFPGTP*GLP*GVK [SP15]")
"reduced potency"
>>> assay_result("GERGPP*GPQGARGFP*GTPGLP*GVK [SP18]")
"reduced potency"
>>> assay_result("GERGPP*GPQGARGFP*GTP*GLPGVK [SP21]")
"no effect on activity"

====

test system: bovine articular cartilage explant; assay: Collagenase-cleaved type II collagen (COL2-3/4C) in bovine articular cartilage explant culture; type: cell-based; conditions: 1 and 10 μM, time- and dose-dependent
No end group written: not given here.
READOUT_LABEL: induction of total collagenase cleavage of type II collagen by CB12 subpeptides

>>> assay_result("GLPGVKGHRGYPGLDGAKGEAGAPG [CB12-III, subpeptide of the CB12 peptide of type II collagen]")
"less activity"
>>> assay_result("GEAGAPGVKGESGSPGQNGSPGPM (not fully specified) [CB12-IV, subpeptide of CB12; used as non-specific / negative control peptide (USP)]")
"less activity"
>>> assay_result("GPRGPPGPPGKPGDDGEAGKPGKSGERGPPG [CB12-I, subpeptide of the CB12 peptide of type II collagen]")
"less activity"
